- Test system: JJN-3
- assay-procedure: Antiproliferative activity against human JJN-3 cells assessed as reduction in cell viability after 72 hrs by CellTiter-Glo assay
- Format: functional, cell-based
- experimental-parameters: JJN-3, 72 h
pIC50: −log10 of the molar value.

>  <record-smiles>
CCc1cc(Nc2nccc(-c3c(-c4ccc(OC)c(C(=O)Nc5c(F)cccc5F)c4)nc4ccccn34)n2)c(OC)cc1N1CCC(N2CCN(S(C)(=O)=O)CC2)CC1

>  <pIC50>
< 4.52

$$$$

----------
- measured-on: Ribosomal protein S6 kinase alpha-4 (Homo sapiens, UniProt O75676)
- Sequence (O75676 whole entry): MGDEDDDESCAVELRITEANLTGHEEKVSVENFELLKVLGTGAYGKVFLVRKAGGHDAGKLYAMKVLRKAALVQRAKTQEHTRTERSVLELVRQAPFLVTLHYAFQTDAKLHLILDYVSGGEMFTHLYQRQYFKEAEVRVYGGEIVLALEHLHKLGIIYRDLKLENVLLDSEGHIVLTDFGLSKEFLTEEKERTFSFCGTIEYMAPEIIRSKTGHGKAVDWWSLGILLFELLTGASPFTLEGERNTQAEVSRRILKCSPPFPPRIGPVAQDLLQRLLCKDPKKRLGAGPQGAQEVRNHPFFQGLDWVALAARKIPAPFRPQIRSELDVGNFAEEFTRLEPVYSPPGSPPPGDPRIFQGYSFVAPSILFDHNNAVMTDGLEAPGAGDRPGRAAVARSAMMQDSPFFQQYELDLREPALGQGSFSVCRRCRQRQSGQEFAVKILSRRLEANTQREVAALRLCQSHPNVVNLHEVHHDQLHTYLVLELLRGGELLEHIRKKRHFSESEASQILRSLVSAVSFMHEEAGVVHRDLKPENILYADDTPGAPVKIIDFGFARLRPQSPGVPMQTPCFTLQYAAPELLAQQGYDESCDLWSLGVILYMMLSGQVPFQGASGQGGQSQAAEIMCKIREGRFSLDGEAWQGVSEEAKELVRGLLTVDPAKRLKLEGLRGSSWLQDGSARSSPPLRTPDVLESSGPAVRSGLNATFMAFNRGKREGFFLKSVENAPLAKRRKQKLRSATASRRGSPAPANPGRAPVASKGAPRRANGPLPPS
- assay-procedure: Inhibition of N-terminal His6-tagged recombinant human MSK2 (2 to end residues) expressed in baculovirus infected Sf21 cells by filter binding assay
pIC50: −log10 of the molar value.

>  <record-smiles>
CCc1cc(Nc2nccc(-c3c(-c4ccc(OC)c(C(=O)Nc5c(F)cccc5F)c4)nc4ccccn34)n2)c(OC)cc1N1CCC(N2CCN(S(C)(=O)=O)CC2)CC1

>  <pIC50>
5.44

$$$$
